Target: mouse TMEM16A mutant I512A (Mus musculus, UniProt Q8BHY3, I512A)
Construct: expressed in transfected cells; host or cells: HEK293T
Sequence (Q8BHY3 whole entry I512A): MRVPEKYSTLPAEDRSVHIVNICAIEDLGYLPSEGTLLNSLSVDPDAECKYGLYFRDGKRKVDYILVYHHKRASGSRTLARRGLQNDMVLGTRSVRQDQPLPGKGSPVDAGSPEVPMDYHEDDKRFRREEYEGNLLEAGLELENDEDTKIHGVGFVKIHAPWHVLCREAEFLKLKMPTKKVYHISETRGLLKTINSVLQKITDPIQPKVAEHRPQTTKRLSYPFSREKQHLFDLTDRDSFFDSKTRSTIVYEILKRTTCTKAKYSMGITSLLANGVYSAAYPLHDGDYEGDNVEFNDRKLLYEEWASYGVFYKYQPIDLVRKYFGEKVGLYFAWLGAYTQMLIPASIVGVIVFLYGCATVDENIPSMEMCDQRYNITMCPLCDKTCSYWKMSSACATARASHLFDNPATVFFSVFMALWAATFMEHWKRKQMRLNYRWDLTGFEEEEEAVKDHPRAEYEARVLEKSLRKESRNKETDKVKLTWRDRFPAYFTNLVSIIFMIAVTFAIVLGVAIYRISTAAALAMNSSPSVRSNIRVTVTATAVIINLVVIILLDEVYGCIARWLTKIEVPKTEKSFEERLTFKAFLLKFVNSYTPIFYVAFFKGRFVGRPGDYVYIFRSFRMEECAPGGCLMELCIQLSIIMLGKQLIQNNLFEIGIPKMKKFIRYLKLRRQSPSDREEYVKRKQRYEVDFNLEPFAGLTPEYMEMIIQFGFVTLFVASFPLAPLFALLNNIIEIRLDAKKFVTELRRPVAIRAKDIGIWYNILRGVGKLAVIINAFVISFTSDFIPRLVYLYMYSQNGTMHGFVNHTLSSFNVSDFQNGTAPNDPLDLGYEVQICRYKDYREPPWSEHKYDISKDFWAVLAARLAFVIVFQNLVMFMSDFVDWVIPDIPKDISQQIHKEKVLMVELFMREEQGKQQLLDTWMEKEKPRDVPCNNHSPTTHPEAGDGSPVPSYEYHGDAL
Assay: Inside-out patch recording of 1PBC block, mutant I512A
Type: cell-based
Details: I512A; V 120 mV
measured.property: pIC50
The value called pIC50 is obtained by taking minus log10 of the concentration in mol/L.

# get_value(readout= pIC50, system= mouse TMEM16A mutant I512A (Mus musculus, UniProt Q8BHY3, I512A)) for N#Cc1c(C(F)(F)F)cc(O)n2c1nc1ccccc12 [1PBC] 4.80

----------
Molecular target: mouse TMEM16A mutant N546A (Mus musculus, UniProt Q8BHY3, N546A)
Construct: expressed in transfected cells; host or cells: HEK293T
Sequence (Q8BHY3 whole entry N546A): as the sequence (Q8BHY3 whole entry I512A) above, with A512I, N546A counted along it
Assay: Inside-out patch recording of 1PBC block, mutant N546A
Assay type: cell-based
Conditions: N546A; V 100 mV
measured.property: pIC50
Just the number, please; pIC50 means minus log10 of the concentration in mol/L.

Return reported pIC50; argument: N#Cc1c(C(F)(F)F)cc(O)n2c1nc1ccccc12 [1PBC] 6.63
